B1: KCNG1 (parent)
chain: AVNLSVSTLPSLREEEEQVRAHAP

# Variants of: B1
# ASSAY_OVERVIEW: protein stability index of a GFP-peptide fusion (GPS, HEK-293T) (PSI 1-6); higher = more stable;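 note: lentivirally expressed fusions sorted by FACS into six bins by GFP to DsRed ratio, PSI derived from sequencing read proportions per bin multiplied by bin number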
# STUDY_CONDITIONS: c terminus: a fixed tail appended
For each of the variants below, state its protein stability index.

Please report the measured protein stability index for `L9M` 4.63

Kindly indicate its recorded protein stability index. Item: `S7A` 4.75

Provide only the value of recorded protein stability index for `V6F` 4.59

Return value of protein stability index for input `L4Y` , no commentary. 4.98

Please look at this variant and report its protein stability index: `A1Y` 2.47

Give recorded protein stability index. `A21E` 4.52

Quick one: give measured protein stability index for `E14H` 4.56

Supply reported protein stability index belonging to this variant: `V2N` 5.59

Query protein stability index for `Q18R` 4.55

Give a short answer stating reported protein stability index for `A1E` . 4.75

Supply recorded protein stability index for `E17P` here. 4.71

Look up and report measured protein stability index for this entry: `L12P` 5.13

Answer with the recorded protein stability index for the variant listed here: `E17Q` 4.69

State its protein stability index for this variant: `V19I` 5.15

For the variant `P10E` , report protein stability index. 5.04

Using known records, supply protein stability index for `R13W` 4.77

Please give the documented protein stability index of `A1K` 5.28

Given `E14Q` , respond with its protein stability index. 4.87

Identify protein stability index associated with the variant `L4D` 5.58

Kindly indicate its recorded protein stability index. Item: `V2E` 5.39

Identify measured protein stability index associated with `S5M` 4.49

Quote protein stability index reported for `A23T` please. 4.87
